# credit: paper PMC8162404

# tgt: Gal-1 (Homo sapiens)
# Construct: made in house; host or cells: E. coli BL21(DE3)
# Sequence (P09382 whole entry): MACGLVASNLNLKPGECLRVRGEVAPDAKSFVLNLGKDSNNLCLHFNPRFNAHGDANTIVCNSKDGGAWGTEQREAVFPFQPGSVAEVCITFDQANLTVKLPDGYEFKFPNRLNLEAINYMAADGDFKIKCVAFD
# protocol_description: Competition pull-down with lactose
# Format: binding
# test_parameters: H14 library; lactose 10 mM; read-out: Surface mapping KD (apparent), competition
readout_label: pKd
Bear in mind: pKd is minus log10 of a mol/L concentration; give just that figure.

For orientation, consider the following solved cases.
given_smiles	pKd
C[C@@H](O)[C@@H](CC(=O)N[C@H]1CCCC[C@@H]1C(N)=O)NC(=O)[C@H]1CCCC[C@@H]1NC(=O)[C@H]1CCCC[C@@H]1NC(=O)C[C@H](CO)NC(=O)[C@H]1CCCC[C@@H]1N	3.38
NC(=O)C[C@@H](CC(=O)N[C@H]1CCCC[C@@H]1C(=O)N[C@H]1CCCC[C@@H]1C(=O)N[C@H](CC(=O)N[C@H]1CCCC[C@@H]1C(N)=O)Cc1c[nH]c2ccccc12)NC(=O)[C@H]1CCCC[C@@H]1N	3.73
CC(C)[C@@H](CC(=O)N[C@H]1CCCC[C@@H]1C(N)=O)NC(=O)[C@H]1CCCC[C@@H]1NC(=O)[C@H]1CCCC[C@@H]1NC(=O)C[C@H](Cc1ccc(O)cc1)NC(=O)[C@H]1CCCC[C@@H]1N	3.65
CC(C)[C@@H](CC(=O)N[C@H]1CCCC[C@@H]1C(N)=O)NC(=O)[C@H]1CCCC[C@@H]1NC(=O)[C@H]1CCCC[C@@H]1NC(=O)C[C@H](Cc1ccccc1)NC(=O)[C@H]1CCCC[C@@H]1N	3.49

input: Fill in pKd for record CSCC[C@@H](CC(=O)N[C@H]1CCCC[C@@H]1C(=O)N[C@H]1CCCC[C@@H]1C(=O)N[C@@H](CCCNC(=N)N)CC(=O)N[C@H]1CCCC[C@@H]1C(N)=O)NC(=O)[C@H]1CCCC[C@@H]1N
output: 3.51

input: Fill in pKd for record CSCC[C@@H](CC(=O)N[C@H]1CCCC[C@@H]1C(N)=O)NC(=O)[C@H]1CCCC[C@@H]1NC(=O)[C@H]1CCCC[C@@H]1NC(=O)C[C@H](CO)NC(=O)[C@H]1CCCC[C@@H]1N
output: 3.45

input: Fill in pKd for record CC(C)[C@@H](CC(=O)N[C@H]1CCCC[C@@H]1C(N)=O)NC(=O)[C@H]1CCCC[C@@H]1NC(=O)[C@H]1CCCC[C@@H]1NC(=O)C[C@H](C)NC(=O)[C@H]1CCCC[C@@H]1N
output: 3.70

input: Fill in pKd for record CC(C)C[C@@H](CC(=O)N[C@H]1CCCC[C@@H]1C(N)=O)NC(=O)[C@H]1CCCC[C@@H]1NC(=O)[C@H]1CCCC[C@@H]1NC(=O)C[C@H](C)NC(=O)[C@H]1CCCC[C@@H]1N
output: 3.57

input: Fill in pKd for record CC(C)C[C@@H](CC(=O)N[C@H]1CCCC[C@@H]1C(=O)N[C@H]1CCCC[C@@H]1C(=O)N[C@@H](C)CC(=O)N[C@H]1CCCC[C@@H]1C(N)=O)NC(=O)[C@H]1CCCC[C@@H]1N
output: 3.37

input: Fill in pKd for record CC(C)C[C@@H](CC(=O)N[C@H]1CCCC[C@@H]1C(N)=O)NC(=O)[C@H]1CCCC[C@@H]1NC(=O)[C@H]1CCCC[C@@H]1NC(=O)C[C@H](CC(=O)O)NC(=O)[C@H]1CCCC[C@@H]1N
output: 3.39

input: Fill in pKd for record C[C@@H](O)[C@@H](CC(=O)N[C@H]1CCCC[C@@H]1C(N)=O)NC(=O)[C@H]1CCCC[C@@H]1NC(=O)[C@H]1CCCC[C@@H]1NC(=O)C[C@H](CCCCN)NC(=O)[C@H]1CCCC[C@@H]1N
output: 3.43

input: Fill in pKd for record CC(C)C[C@@H](CC(=O)N[C@H]1CCCC[C@@H]1C(N)=O)NC(=O)[C@H]1CCCC[C@@H]1NC(=O)[C@H]1CCCC[C@@H]1NC(=O)C[C@H](Cc1ccccc1)NC(=O)[C@H]1CCCC[C@@H]1N
output: 3.79

input: Fill in pKd for record CSCC[C@@H](CC(=O)N[C@H]1CCCC[C@@H]1C(=O)N[C@H]1CCCC[C@@H]1C(=O)N[C@H](CC(=O)N[C@H]1CCCC[C@@H]1C(N)=O)C(C)C)NC(=O)[C@H]1CCCC[C@@H]1N
output: 3.66

input: Fill in pKd for record C[C@@H](CC(=O)N[C@H]1CCCC[C@@H]1C(N)=O)NC(=O)[C@H]1CCCC[C@@H]1NC(=O)[C@H]1CCCC[C@@H]1NC(=O)C[C@@H](NC(=O)[C@H]1CCCC[C@@H]1N)[C@@H](C)O
output: 3.37

input: Fill in pKd for record CC(C)[C@@H](CC(=O)N[C@H]1CCCC[C@@H]1C(N)=O)NC(=O)[C@H]1CCCC[C@@H]1NC(=O)[C@H]1CCCC[C@@H]1NC(=O)C[C@H](Cc1c[nH]c2ccccc12)NC(=O)[C@H]1CCCC[C@@H]1N
output: 3.65

input: Fill in pKd for record CC[C@H](C)[C@@H](CC(=O)N[C@H]1CCCC[C@@H]1C(=O)N[C@H]1CCCC[C@@H]1C(=O)N[C@H](CC(=O)N[C@H]1CCCC[C@@H]1C(N)=O)[C@@H](C)O)NC(=O)[C@H]1CCCC[C@@H]1N
output: 3.48

input: Fill in pKd for record CC(C)[C@@H](CC(=O)N[C@H]1CCCC[C@@H]1C(N)=O)NC(=O)[C@H]1CCCC[C@@H]1NC(=O)[C@H]1CCCC[C@@H]1NC(=O)C[C@@H](NC(=O)[C@H]1CCCC[C@@H]1N)[C@@H](C)O
output: 3.37

input: Fill in pKd for record CC(C)C[C@@H](CC(=O)N[C@H]1CCCC[C@@H]1C(N)=O)NC(=O)[C@H]1CCCC[C@@H]1NC(=O)[C@H]1CCCC[C@@H]1NC(=O)C[C@H](CCC(N)=O)NC(=O)[C@H]1CCCC[C@@H]1N
output: 3.34
